Hello, the source for this data is ChEMBL document CHEMBL1128733, in case you need it.

- Experimental System: Histamine H1 receptor (Cavia porcellus, UniProt P31389)
- Sequence (P31389 whole entry): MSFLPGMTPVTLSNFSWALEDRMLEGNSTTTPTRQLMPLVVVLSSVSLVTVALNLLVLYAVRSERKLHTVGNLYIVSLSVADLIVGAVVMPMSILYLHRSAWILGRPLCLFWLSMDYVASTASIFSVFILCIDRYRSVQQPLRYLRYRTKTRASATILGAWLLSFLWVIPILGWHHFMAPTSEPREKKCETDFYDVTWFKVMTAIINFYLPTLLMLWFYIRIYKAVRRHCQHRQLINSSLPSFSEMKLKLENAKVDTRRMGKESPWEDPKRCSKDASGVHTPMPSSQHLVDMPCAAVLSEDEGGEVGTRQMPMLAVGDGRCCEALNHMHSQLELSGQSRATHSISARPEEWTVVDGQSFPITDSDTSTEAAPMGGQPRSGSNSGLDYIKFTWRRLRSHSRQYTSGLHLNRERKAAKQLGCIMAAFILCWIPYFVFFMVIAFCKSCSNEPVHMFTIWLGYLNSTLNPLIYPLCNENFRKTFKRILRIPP
- Protocol Details: Binding affinity for H1 receptor of guinea pig by the displacement of [3H]mepyramine, bound to membranes of CHO cells
- Format: cell membranes
Observation Type: Ki (µM)
Report the figure in µM without appending any unit label.

query: What does the record list as Ki for NCCCCc1c[nH]cn1 ?
result: 398

====

- Experimental System: UniProt:Q9JI35
- Sequence (Q9JI35 whole entry): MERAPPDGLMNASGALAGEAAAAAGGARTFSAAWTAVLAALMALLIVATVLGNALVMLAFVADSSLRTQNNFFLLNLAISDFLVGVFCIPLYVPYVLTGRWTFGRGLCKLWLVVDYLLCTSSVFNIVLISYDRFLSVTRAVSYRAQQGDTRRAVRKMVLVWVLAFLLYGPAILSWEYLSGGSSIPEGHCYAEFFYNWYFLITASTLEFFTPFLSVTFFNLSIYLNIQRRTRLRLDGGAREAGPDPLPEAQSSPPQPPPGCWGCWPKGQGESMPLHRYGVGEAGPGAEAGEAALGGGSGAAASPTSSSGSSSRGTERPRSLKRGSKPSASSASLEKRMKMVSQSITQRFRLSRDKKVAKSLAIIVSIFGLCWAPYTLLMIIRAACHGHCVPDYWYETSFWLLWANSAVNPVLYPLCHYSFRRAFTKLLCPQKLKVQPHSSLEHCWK
- Protocol Details: Tested in vitro for antagonist activity against H3 receptor of guinea pig jejunum.
- Type: functional, tissue-based
- Test Settings: read-out: pA2 (converted)
Would you kindly list log10(Kb) for each of these molecules?
Parameter value (number): base-10 log of Kb in µM.

query: What does the record list as log10(Kb) for NCCCCCCCCCCc1c[nH]cn1 ?
result: 0.00

query: What does the record list as log10(Kb) for NCCCCc1c[nH]cn1 ?
result: -1.70

query: What does the record list as log10(Kb) for NCCCc1c[nH]cn1 ?
result: 0.10

query: What does the record list as log10(Kb) for NCCCCCCc1cnc[nH]1 ?
result: -1.80

query: What does the record list as log10(Kb) for NCCCCCc1c[nH]cn1 ?
result: -2.40

query: What does the record list as log10(Kb) for NCCCCCCCCc1cnc[nH]1 ?
result: 0.00
